target: α7-HI (Rattus norvegicus, UniProt Q05941); construct: expressed in transfected cells; assay: FLIPR Ca2+-sensitive fluorescence assay, α7-HI (agonist activity) in HEK 293 cells; assay type: cell-based; conditions: Table 5; Ca2+ flux, HEK-293 cells expressing the channel; read-out: FLIPR α7-HI (EC50)
Sequence (Q05941 23-502): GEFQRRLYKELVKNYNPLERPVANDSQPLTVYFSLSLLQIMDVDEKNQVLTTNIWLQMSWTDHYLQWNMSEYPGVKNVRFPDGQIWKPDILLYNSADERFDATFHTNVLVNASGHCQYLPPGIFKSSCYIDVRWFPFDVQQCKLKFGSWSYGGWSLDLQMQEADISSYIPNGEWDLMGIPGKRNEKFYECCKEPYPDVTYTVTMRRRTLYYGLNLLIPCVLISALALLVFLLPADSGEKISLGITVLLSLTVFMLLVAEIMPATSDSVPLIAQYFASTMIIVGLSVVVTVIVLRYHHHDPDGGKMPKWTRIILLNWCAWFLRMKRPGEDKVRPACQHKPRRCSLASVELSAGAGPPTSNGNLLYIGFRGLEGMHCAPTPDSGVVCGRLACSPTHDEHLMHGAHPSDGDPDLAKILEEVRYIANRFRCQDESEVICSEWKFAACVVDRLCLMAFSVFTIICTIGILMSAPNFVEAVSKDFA
MEASUREMENT TYPE: EC50 (nM)
Unit nM implied. Number only.

Briefly, EC50 measured for O=C(c1n[nH]c2ccccc12)N1C2CC3C1CCCN3C2 (centres unmarked) [Example 50] : 360

###

biological target: α-7 nicotinic ACh receptor ion channel (Rattus norvegicus); construct: expressed in transfected cells; test: FLIPR Ca2+-sensitive fluorescence assay of α7 nicotinic acetylcholine receptor channel function (agonist activity) in HEK 293 cells; type: cell-based; details: Table 2; Ca2+ flux, HEK-293 cells expressing the channel
Sequence (Q05941 23-502): as above
EC50 less than 0.06 µM is YES; EC50 greater than or equal to 0.06 µM is NO.

In [3]: df
Out[3]:
                                   molecule  assigned_label
0  Cc1ccc2c(C(=O)N3[C@H]4C[C@@H]5CC[N@](C4)C[C@@H]53)n[nH]c2c1             YES
1  O=C(c1n[nH]c2cc(F)ccc12)N1[C@H]2C[C@@H]3CC[N@](C2)C[C@@H]31              NO
2  O=C(c1n[nH]c2c(Cl)cccc12)N1[C@H]2C[C@@H]3CC[N@](C2)C[C@@H]31              NO
3  O=C(c1n[nH]c2ccccc12)N1[C@H]2C[C@@H]3CC[N@](C2)C[C@@H]31             YES
4  O=C(c1n[nH]c2ncccc12)N1[C@H]2C[C@@H]3CC[N@](C2)C[C@@H]31              NO
5  O=C(c1cc(C2CC2)[nH]n1)N1[C@H]2C[C@@H]3CC[N@](C2)C[C@@H]31              NO
6  O=C(c1cc(-c2ccccc2)[nH]n1)N1[C@H]2C[C@@H]3CC[N@](C2)C[C@@H]31              NO

Shifting focus to the compound that follows.
Ask: In plain terms, does O=C(c1n[nH]c2cc(Cl)ccc12)N1[C@H]2C[C@@H]3CC[N@](C2)C[C@@H]31 come in under 0.06 µM for EC50?
Result: YES
